Listed next: entries and their corresponding IC50.
- Target Or Test System: DNA-dependent protein kinase (DNA-PK) (Homo sapiens)
- Construct: endogenous in cells; host or cells: Jurkat cells (ATCC TIB-152, clone E6-1), lysate
- Experimental Protocol: kinobeads assay, DNA-PK (dot blot detection)
- Assay type: binding
- Cond: Table 2, Jurkat cell lysate, read-out: Inhibition values (IC50) DNAPK
Endpoint Name: IC50

• CCNC(=O)Nc1ccc(-c2ccnc(N3CCOCC3)n2)cc1 [Example 29] = 1 to 10 µM
• C[C@H]1COCCN1c1cc(-c2cccnc2)nc(-c2ccc(NC(=O)NC3CC3)cc2)n1 [Example 3] = ≥ 10 µM
• C[C@H]1COCCN1c1cc(-c2ccncc2)nc(-c2ccc(NC(=O)NC3CC3)cc2)n1 [Example 25] = ≥ 10 µM
• CCNC(=O)Nc1ccc(-c2cc(-c3ccccc3C#N)nc(N3CCOC[C@@H]3C)n2)cc1 [Example 8] = ≥ 10 µM
• CCCNC(=O)Nc1ccc(-c2nccc(N3CCOCC3)n2)cc1 [Example 32] = 1 to 10 µM

---

Listed next: entries and their corresponding pIC50.
- Target Or Test System: PI3Kα (Homo sapiens)
- Construct: endogenous in cells
- Experimental Protocol: kinobeads assay, PI3K alpha (dot blot detection)
- Cond: Table 4, read-out: Inhibition values (IC50) PI3Ka
pIC50: −log10 of the molar value.
Endpoint Name: pIC50

• C[C@H]1COCCN1c1cc(-c2cccnc2)nc(-c2ccc(NC(=O)NC3CC3)cc2)n1 = ≤ 5.00
• C[C@H]1COCCN1c1nccc(-c2ccc(NC(=O)NC3CC3)cc2)n1 = ≤ 5.00
• C[C@H]1COCCN1c1cc(-c2cncc(F)c2)nc(-c2ccc(NC(=O)NCCF)cc2F)n1 = ≤ 5.00
• C[C@H]1COCCN1c1nc(-c2ccc(NC(=O)NC(C)(C)CO)cc2)cc(-c2cc(F)ccc2S(C)(=O)=O)n1 = ≤ 5.00
• C[C@H]1COCCN1c1ccnc(-c2ccc(NC(=O)NC3CC3)cc2)n1 = ≤ 5.00
• C[C@H]1COCCN1c1nc(-c2ccc(NC(=O)NC3CC3)cc2)cc(-c2cccnc2[S+](C)[O-])n1 (some centres unmarked) = 5.00 to 6.00
• C[C@H]1COCCN1c1nc(-c2ccc(NC(=O)NCC(N)=O)cc2)cc(-c2cc(F)ccc2S(C)(=O)=O)n1 = ≤ 5.00
• C[C@H]1COCCN1c1cc(-c2cncc(F)c2)nc(-c2ccc(NC(=O)NC3CC3)cc2)n1 = ≤ 5.00

---

- Target Or Test System: PI3Kα (Homo sapiens, UniProt P42336)
- Construct: endogenous in cells
- Sequence (P42336 whole entry): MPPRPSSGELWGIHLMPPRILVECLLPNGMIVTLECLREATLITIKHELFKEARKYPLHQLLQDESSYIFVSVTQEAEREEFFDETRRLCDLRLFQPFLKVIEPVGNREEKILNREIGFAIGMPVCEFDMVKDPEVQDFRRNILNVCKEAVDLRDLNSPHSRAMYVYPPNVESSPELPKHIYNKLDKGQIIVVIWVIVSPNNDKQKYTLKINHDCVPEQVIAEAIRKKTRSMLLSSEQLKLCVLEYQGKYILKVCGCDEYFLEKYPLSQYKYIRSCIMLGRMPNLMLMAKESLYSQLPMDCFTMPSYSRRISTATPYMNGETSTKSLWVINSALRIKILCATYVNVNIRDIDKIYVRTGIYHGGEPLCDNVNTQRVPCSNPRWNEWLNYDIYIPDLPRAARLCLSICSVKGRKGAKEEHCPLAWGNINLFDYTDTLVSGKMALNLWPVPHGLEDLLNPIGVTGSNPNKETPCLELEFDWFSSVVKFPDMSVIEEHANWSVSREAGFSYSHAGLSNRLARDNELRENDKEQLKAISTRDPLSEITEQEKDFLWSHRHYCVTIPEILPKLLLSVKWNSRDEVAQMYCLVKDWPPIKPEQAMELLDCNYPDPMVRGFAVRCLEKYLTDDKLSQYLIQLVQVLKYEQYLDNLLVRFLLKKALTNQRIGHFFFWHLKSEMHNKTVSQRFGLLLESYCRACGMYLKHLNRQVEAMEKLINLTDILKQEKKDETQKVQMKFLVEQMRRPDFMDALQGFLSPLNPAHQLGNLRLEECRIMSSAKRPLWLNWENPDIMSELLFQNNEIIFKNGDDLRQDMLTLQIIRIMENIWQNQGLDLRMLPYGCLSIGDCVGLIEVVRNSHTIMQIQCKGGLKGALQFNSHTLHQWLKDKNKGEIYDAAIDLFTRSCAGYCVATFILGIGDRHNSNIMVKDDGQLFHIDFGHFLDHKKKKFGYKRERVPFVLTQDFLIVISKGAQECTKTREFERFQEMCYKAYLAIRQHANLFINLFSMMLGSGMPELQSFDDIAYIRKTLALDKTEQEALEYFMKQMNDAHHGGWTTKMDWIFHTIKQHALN
- Sequence (P27986 whole entry partner): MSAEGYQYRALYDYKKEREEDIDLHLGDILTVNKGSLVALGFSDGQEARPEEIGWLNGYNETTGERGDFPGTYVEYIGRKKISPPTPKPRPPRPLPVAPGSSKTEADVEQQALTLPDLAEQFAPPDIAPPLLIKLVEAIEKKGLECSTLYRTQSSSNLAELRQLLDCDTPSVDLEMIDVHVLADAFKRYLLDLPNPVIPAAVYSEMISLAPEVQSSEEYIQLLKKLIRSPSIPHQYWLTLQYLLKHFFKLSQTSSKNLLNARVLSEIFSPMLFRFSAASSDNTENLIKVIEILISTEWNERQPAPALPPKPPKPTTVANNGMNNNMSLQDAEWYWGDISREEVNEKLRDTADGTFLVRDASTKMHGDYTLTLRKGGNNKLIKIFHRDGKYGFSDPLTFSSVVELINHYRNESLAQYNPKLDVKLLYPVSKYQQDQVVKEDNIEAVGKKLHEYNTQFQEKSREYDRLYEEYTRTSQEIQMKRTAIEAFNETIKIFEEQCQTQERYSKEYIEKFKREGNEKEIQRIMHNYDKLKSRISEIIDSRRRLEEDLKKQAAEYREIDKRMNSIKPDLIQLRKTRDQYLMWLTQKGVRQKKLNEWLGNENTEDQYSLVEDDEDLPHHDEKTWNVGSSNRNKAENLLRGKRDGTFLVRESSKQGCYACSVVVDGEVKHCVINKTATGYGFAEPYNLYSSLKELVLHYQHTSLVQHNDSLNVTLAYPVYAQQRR
- Experimental Protocol: kinobeads assay, PI3K alpha (dot blot detection)
- Cond: Table 4, read-out: Inhibition values (IC50) PI3Ka
Endpoint Name: IC50

• CCNC(=O)Nc1ccc(-c2ccnc(N3CCOCC3)n2)cc1 = 1 to 10 µM
• CCNC(=O)Nc1ccc(-c2ccnc(N3CCOC[C@@H]3C)n2)cc1 = ≥ 10 µM
• C[C@H]1COCCN1c1ccnc(-c2ccc(NC(=O)NCCO)cc2)n1 = 1 to 10 µM
• C[C@H]1COCCN1c1cc(-c2cc(F)ccc2S(C)(=O)=O)nc(-c2ccc(NC(=O)NCCO)cc2F)n1 = ≥ 10 µM
• O=C(Nc1ccc(-c2nccc(N3CC4CCC(C3)O4)n2)cc1)NC1CC1 = ≥ 10 µM

---

- Target Or Test System: DNA-dependent protein kinase (DNA-PK) (Homo sapiens, UniProt P78527)
- Construct: endogenous in cells; host or cells: Jurkat cells (ATCC TIB-152, clone E6-1), lysate
- Experimental Protocol: kinobeads assay, DNA-PK (dot blot detection)
- Format: binding
- Cond: Table 2, Jurkat cell lysate, read-out: Inhibition values (IC50) DNAPK
pIC50: −log10 of the molar value.
Listed next: entries and their corresponding pIC50.
Endpoint Name: pIC50

- C[C@H]1COCCN1c1cc(-c2cccc(S(C)(=O)=O)c2)nc(-c2ccc(NC(=O)NC3CC3)cc2)n1: ≤ 5.00
- NC(=O)Nc1ccc(-c2nccc(N3CCOCC3)n2)cc1: 5.00 to 6.00
- C[C@H]1COCCN1c1cc(-c2cncc(F)c2)nc(-c2ccc(NC(=O)NCCF)cc2F)n1: ≤ 5.00
- C[C@H]1COCCN1c1cc(-c2ccc(F)nc2)nc(-c2ccc(NC(=O)NC3CC3)cc2)n1: ≤ 5.00
- O=C(NCC(F)F)Nc1ccc(-c2nccc(N3CC4CCC(C3)O4)n2)cc1: 5.00 to 6.00
- CCNC(=O)Nc1ccc(-c2cc(-c3cc[nH]n3)nc(N3CCOC[C@@H]3C)n2)cc1: ≤ 5.00
- C[C@H]1COCCN1c1ccnc(-c2ccc(NC(=O)NCCO)cc2)n1: ≤ 5.00
- O=C(NCCO)Nc1ccc(-c2ccnc(N3CC4CCC(C3)O4)n2)cc1: ≤ 5.00

---

Listed next: entries and their corresponding IC50.
- Target Or Test System: kinases (kinome) (Homo sapiens, UniProt Q8TD19)
- Construct: determined in kinobeads assays with mass spectrometry detection of kinases as described previously; endogenous in cells
- Sequence (Q8TD19 whole entry): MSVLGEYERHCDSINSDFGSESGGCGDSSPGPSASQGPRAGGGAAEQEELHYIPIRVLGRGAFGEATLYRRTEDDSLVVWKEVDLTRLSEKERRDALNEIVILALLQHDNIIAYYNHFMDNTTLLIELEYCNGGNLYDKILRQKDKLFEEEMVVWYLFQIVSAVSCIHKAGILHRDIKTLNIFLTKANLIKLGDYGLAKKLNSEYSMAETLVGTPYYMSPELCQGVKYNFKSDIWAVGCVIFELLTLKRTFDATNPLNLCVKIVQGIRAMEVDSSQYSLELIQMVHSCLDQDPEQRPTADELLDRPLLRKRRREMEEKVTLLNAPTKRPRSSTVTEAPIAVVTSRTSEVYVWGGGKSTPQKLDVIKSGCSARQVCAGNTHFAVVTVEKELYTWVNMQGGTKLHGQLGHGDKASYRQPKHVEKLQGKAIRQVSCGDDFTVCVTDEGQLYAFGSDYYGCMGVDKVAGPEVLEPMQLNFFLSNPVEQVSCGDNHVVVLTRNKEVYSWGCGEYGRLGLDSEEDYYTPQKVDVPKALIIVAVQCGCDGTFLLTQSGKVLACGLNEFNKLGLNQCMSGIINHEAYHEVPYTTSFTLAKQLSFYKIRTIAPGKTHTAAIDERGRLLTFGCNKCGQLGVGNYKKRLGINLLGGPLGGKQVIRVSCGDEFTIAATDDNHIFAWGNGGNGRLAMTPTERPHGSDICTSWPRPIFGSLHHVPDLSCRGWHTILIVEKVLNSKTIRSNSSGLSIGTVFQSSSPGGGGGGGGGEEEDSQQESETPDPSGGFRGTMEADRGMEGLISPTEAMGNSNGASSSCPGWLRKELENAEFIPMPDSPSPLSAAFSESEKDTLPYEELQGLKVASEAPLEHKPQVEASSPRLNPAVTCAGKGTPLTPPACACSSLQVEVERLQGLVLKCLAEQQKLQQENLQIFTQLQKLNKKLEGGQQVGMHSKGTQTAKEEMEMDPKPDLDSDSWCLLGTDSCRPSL
- Experimental Protocol: kinobeads assay with mass spectrometry detection of kinases (kinase selectivity profile)
- Cond: NEK9 (Other), IPI00301609
Endpoint Name: IC50

- CCNC(=O)Nc1ccc(-c2cc(-c3ccccc3C#N)nc(N3CCOC[C@@H]3C)n2)cc1 [Example 8]: > 10 µM
- C[C@H]1COCCN1c1nc(-c2ccc(NC(=O)N[C@H]3CCC[C@@H]3O)cc2)cc(-c2cc(F)ccc2S(C)(=O)=O)n1 [Example 76]: > 10 µM
- C[C@H]1COCCN1c1nc(-c2ccc(NC(=O)NC3CC3)cc2)cc(-c2cccnc2S(C)(=O)=O)n1 [Example 46]: > 10 µM
- C[C@H]1COCCN1c1cc(-c2ccccn2)nc(-c2ccc(NC(=O)NCCO)cc2)n1 [Example 43]: > 10 µM
- C[C@H]1COCCN1c1cc(-c2ccccc2S(C)(=O)=O)nc(-c2ccc(NC(=O)NC3CC3)cc2)n1 [Example 6]: > 10 µM
- C[C@H]1COCCN1c1nc(-c2ccc(NC(=O)NC3CC3)cc2)cc(-c2ccccc2S(C)(=O)=O)n1 [Example 4]: > 10 µM
- C[C@H]1COCCN1c1nc(-c2ccc(NC(=O)NC3CC3)cc2)cc(-c2cc(F)ccc2S(C)(=O)=O)n1 [Example 40]: > 10 µM

---

Listed next: entries and their corresponding pIC50.
- Target Or Test System: kinases (kinome) (Homo sapiens, UniProt O75676)
- Construct: determined in kinobeads assays with mass spectrometry detection of kinases as described previously; endogenous in cells
- Sequence (O75676 whole entry): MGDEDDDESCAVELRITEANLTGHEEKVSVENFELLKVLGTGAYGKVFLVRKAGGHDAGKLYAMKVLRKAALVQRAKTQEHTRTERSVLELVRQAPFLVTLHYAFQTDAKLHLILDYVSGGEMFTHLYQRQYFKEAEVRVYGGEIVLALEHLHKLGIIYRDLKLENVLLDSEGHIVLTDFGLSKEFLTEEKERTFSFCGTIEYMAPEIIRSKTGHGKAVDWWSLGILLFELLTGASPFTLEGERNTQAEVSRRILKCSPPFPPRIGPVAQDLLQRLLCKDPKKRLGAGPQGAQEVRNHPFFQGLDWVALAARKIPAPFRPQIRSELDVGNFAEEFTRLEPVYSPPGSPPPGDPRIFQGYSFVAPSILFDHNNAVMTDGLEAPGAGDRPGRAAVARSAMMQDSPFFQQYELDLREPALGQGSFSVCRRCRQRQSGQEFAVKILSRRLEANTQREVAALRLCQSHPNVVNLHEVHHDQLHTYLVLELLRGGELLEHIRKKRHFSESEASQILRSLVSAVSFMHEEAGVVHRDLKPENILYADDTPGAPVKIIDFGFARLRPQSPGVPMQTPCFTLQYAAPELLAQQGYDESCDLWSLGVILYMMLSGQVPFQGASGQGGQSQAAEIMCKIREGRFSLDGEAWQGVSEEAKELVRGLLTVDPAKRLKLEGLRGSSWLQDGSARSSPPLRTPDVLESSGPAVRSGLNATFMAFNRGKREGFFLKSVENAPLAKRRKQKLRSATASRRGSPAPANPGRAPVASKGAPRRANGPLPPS
- Experimental Protocol: kinobeads assay with mass spectrometry detection of kinases (kinase selectivity profile)
- Cond: MSK2 (AGC), IPI00022536
pIC50: −log10 of the molar value.
Endpoint Name: pIC50

- C[C@H]1COCCN1c1nc(-c2ccc(NC(=O)NC3CC3)cc2)cc(-c2cccnc2S(C)(=O)=O)n1 [Example 46]: < 5.00
- C[C@H]1COCCN1c1nc(-c2ccc(NC(=O)NC3CC3)cc2)cc(-c2cc(F)ccc2S(C)(=O)=O)n1 [Example 40]: < 5.00
- C[C@H]1COCCN1c1cc(-c2ccccn2)nc(-c2ccc(NC(=O)NCCO)cc2)n1 [Example 43]: < 5.00

---

Listed next: entries and their corresponding pIC50.
- Target Or Test System: mTOR (Homo sapiens, UniProt P42345)
- Construct: endogenous in cells; host or cells: Jurkat cells (ATCC TIB-152, clone E6-1), lysate
- Experimental Protocol: mTOR kinobeads assay (dot blot detection)
- Type: binding
- Cond: Table 4, read-out: Inhibition values (IC50) mTOR
pIC50: −log10 of the molar value.
Endpoint Name: pIC50

* O=C(NCCO)Nc1ccc(-c2ccnc(N3CC4CCC(C3)O4)n2)cc1 | 5.00 to 6.00
* CCCNC(=O)Nc1ccc(-c2ccnc(N3CCOCC3)n2)cc1 | 5.00 to 6.00
* C[C@H](CO)NC(=O)Nc1ccc(-c2cc(-c3cc(F)ccc3S(C)(=O)=O)nc(N3CCOC[C@@H]3C)n2)cc1 | 6.00 to 7.00
* C[C@H]1COCCN1c1cc(-c2ccc(F)nc2)nc(-c2ccc(NC(=O)NC3CC3)cc2)n1 | 6.00 to 7.00
* C[C@H]1COCCN1c1cc(-c2cncc(F)c2)nc(-c2ccc(NC(=O)NCCF)cc2F)n1 | 5.00 to 6.00
* O=C(Nc1ccc(-c2nccc(N3CC4CCC(C3)O4)n2)cc1)NC1CC1 | 6.00 to 7.00
* C[C@H]1COCCN1c1ccnc(-c2ccc(NC(=O)NCC(F)F)cc2)n1 | 6.00 to 7.00
* O=C(Nc1ccc(-c2cc(-c3cccnc3)nc(N3CCOCC3)n2)cc1)NC1CC1 | 5.00 to 6.00
* C[C@H]1COCCN1c1cc(-c2cncc(F)c2)nc(-c2ccc(NC(=O)NC3CC3)cc2)n1 | 6.00 to 7.00
* C[C@H]1COCCN1c1nc(-c2ccc(NC(=O)NC3CC3)cc2)cc(-c2cccnc2[S+](C)[O-])n1 (some centres unmarked) | > 7.00
* C[C@H]1COCCN1c1cc(-c2ccccc2S(C)(=O)=O)nc(-c2ccc(NC(=O)NCCO)cc2)n1 | > 7.00
* CCNC(=O)Nc1ccc(-c2cc(-c3ccccc3S(=O)(=O)NC)nc(N3CCOCC3)n2)cc1 | 5.00 to 6.00
* CC(=O)NCCNC(=O)Nc1ccc(-c2cc(-c3cc(F)ccc3S(C)(=O)=O)nc(N3CCOC[C@@H]3C)n2)cc1 | 5.00 to 6.00
* CNC(=O)Nc1ccc(-c2ccnc(N3CCOCC3)n2)cc1 | 5.00 to 6.00
* CC(O)CNC(=O)Nc1ccc(-c2cc(-c3cc(F)ccc3S(C)(=O)=O)nc(N3CCOC[C@@H]3C)n2)cc1 (some centres unmarked) | 6.00 to 7.00
* C[C@H]1COCCN1c1cc(-c2cc(F)ccc2S(C)(=O)=O)nc(-c2ccc(NC(=O)NCCO)cc2F)n1 | 6.00 to 7.00
* C[C@H]1COCCN1c1nc(-c2ccc(NC(=O)NCCN)cc2)cc(-c2cc(F)ccc2S(C)(=O)=O)n1 | 6.00 to 7.00
* CCNC(=O)Nc1ccc(-c2cc(-c3ccccc3CO)nc(N3CCOC[C@@H]3C)n2)cc1 | 5.00 to 6.00
* CS(=O)(=O)c1ccc(F)cc1-c1cc(-c2ccc(NC(=O)NCCO)cc2)nc(N2CCOCC2)n1 | 6.00 to 7.00
* O=C(Nc1ccncc1)Nc1ccc(-c2nccc(N3CC4CCC(C3)O4)n2)cc1 | 6.00 to 7.00
* C[C@H]1COCCN1c1cc(-c2cncc(S(C)(=O)=O)c2)nc(-c2ccc(NC(=O)NC3CC3)cc2)n1 | 5.00 to 6.00
* CCNC(=O)Nc1ccc(-c2cc(-c3ccccc3NC(C)=O)nc(N3CCOC[C@@H]3C)n2)cc1 | 5.00 to 6.00
* C[C@H]1COCCN1c1nc(-c2ccc(NC(=O)NC3CC3)cc2)cc(-c2cccnc2)n1 | 5.00 to 6.00
* C[C@H]1COCCN1c1cc(-c2ccncc2)nc(-c2ccc(NC(=O)NC3CC3)cc2)n1 | 6.00 to 7.00
* CCNC(=O)Nc1ccc(-c2nccc(N3CC4CCC(C3)O4)n2)cc1 | 6.00 to 7.00
* CCNC(=O)Nc1ccc(-c2cc(-c3ccccc3S(C)(=O)=O)nc(N3CCOCC3)n2)cc1 | 5.00 to 6.00
* O=C(NCCO)Nc1ccc(-c2nccc(N3CC4CCC(C3)O4)n2)cc1 | > 7.00
* O=C(Nc1ccc(-c2ccnc(N3CCOCC3)n2)cc1)NC1CC1 | 5.00 to 6.00
* C[C@H]1COCCN1c1nc(-c2ccc(NC(=O)NC3CC3)cc2)cc(-c2cc(F)ccc2S(C)(=O)=O)n1 | 6.00 to 7.00
* O=C(NCC(F)F)Nc1ccc(-c2nccc(N3CC4CCC(C3)O4)n2)cc1 | 6.00 to 7.00
* CCNC(=O)Nc1ccc(-c2cc(-c3ccccc3C#N)nc(N3CCOC[C@@H]3C)n2)cc1 | 5.00 to 6.00
* C[C@H]1COCCN1c1ccnc(-c2ccc(NC(=O)Nc3ccncc3)cc2)n1 | 6.00 to 7.00

All figures here come from patent US9249129B2.
